Target: MRGPRX3 (Homo sapiens)
Sequence (Q96LB0 whole entry): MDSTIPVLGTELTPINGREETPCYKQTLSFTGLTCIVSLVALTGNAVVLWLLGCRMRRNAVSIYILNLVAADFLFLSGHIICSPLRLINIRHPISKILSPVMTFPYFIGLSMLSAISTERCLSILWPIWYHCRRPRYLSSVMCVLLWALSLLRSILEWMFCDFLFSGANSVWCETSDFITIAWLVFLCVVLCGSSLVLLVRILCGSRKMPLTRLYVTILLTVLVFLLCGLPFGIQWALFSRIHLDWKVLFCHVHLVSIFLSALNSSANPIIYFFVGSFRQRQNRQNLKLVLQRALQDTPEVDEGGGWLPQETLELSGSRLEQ
Assay: FLIPR calcium imaging, HEK293 expressing MRGPRX3
Format: cell-based
Positions of bridges follow the written chain, without caps; N, C: chain ends. No end group written: not given here.
endpointLabel: EC50

> print(dat)
                                    seqtext  reportedresult
1  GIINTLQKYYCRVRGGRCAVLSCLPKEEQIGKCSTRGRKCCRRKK (disulfide 11-40, 18-33, 23-41) [DEFB103]          7.4 µM

* * *

Target: MRGPRX2 (Homo sapiens)
Sequence (Q96LB1 1-330): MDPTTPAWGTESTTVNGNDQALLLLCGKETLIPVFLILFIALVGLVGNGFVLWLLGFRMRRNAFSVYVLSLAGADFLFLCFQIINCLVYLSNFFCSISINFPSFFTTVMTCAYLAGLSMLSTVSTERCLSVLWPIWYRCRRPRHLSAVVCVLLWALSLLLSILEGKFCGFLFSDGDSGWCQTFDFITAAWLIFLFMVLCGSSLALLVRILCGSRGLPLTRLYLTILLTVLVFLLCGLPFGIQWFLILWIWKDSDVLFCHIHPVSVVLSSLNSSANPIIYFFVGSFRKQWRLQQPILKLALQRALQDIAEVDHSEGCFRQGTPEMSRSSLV
Experiment: FLIPR calcium imaging, HEK293 expressing MRGPRX2
Assay type: cell-based
Details: SEM
pEC50: −log10 of the molar value. Positions of bridges follow the written chain, without caps; N, C: chain ends. No end group written: not given here.
Recorded measurements of pEC50, one per entry
endpointLabel: pEC50

> print(dat)
                                    seqtext  reportedresult
1  GIGDPVTCLKSGAICHPVFCPRRYKQIGTCGLPGTKCCKKP (disulfide 8-37, 15-30, 20-38) [DEFB4]            4.76
2  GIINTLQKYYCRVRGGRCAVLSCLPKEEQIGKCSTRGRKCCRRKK (disulfide 11-40, 18-33, 23-41) [DEFB103]            6.38
